Tested on: K4 kissing-loop RNA reporter;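 note: bound reporter read as fluorescence of individual clusters on recovered sequencing chips by microscopy, with normalized cluster intensities fitted with a binding model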
measurement protocol: apparent KD of K4 kissing-loop reporter; higher = weaker reporter binding
conditions used: Eterna round: R107; input ligand: tryptophan 2.4 mM
# apparent KD of K4 kissing-loop reporter per entry
Write the answer as a number in nM, unit excluded.

Some solved cases for reference:
{"sequence string": "UCGAAGGAUGGAAGGAGCGCUCGUCAGUCCUGCGAGUGAUGUUCGUGGGUAAAUAUUCGCGAGCAGGUAGGUCGCCAUCUUGAGA [Laatla]", "measurement label": "apparent KD of K4 kissing-loop reporter", "experimental value": 129}
{"sequence string": "GCCUACGUAGCAGGAUAUAGGUAAGUGAGUGAUGUUCAAGAGUUCUGGAGUGAUGUUCCAAUCUGACUAGAAGGGCUACGUAGGC", "measurement label": "apparent KD of K4 kissing-loop reporter", "experimental value": 54.1}

# ---- query sequence ----
Documented apparent KD of K4 kissing-loop reporter of UCCCGAGUGAUGUUCGGCGCGGUCACCGAAGGAGCGGGCGAAAGCCCAGGUAGGUCGCGGUAGCGGAGUGAUUCUCCGCGACCGC [Same State Arginine A GF 24] : 298
